# Tested on: NCI-H2126
# experimental_protocol: relative viability (nuclei count vs DMSO), 5 days (fraction); higher = more cells survive
# experimental_context: first compound 0.08 µM
Field 'label' (enum: met / not met). Set to met when relative viability is strictly under 0.7; else not met.

Known results for compounds:
O=c1[nH]c2ccccc2n1C1CCN(CCCC(c2ccc(F)cc2)c2ccc(F)cc2)CC1 [Pimozide] + CC(=O)c1c(C)c2cnc(Nc3ccc(N4CCNCC4)cn3)nc2n(C2CCCC2)c1=O [Palbociclib] (partner 0.5 µM) ... met
O=c1[nH]c2ccccc2n1C1CCN(CCCC(c2ccc(F)cc2)c2ccc(F)cc2)CC1 [Pimozide] + Nc1ncn([C@H]2C[C@H](O)[C@@H](CO)O2)c(=O)n1 [Decitabine] (partner 2 µM) ... met
Cc1cnc(-c2cnc(NCCNc3ccc(C#N)cn3)nc2-c2ccc(Cl)cc2Cl)[nH]1 + C[C@]1(O)C[C@@H](c2nc(-c3ccc4ccc(-c5ccccc5)nc4c3)c3c(N)nccn32)C1 [Linsitinib] (partner 1 µM) ... not met
O=c1[nH]c2ccccc2n1C1CCN(CCCC(c2ccc(F)cc2)c2ccc(F)cc2)CC1 [Pimozide] + NC(=O)Nc1cc(-c2cccc(F)c2)sc1C(=O)N[C@H]1CCCNC1 [AZD7762] (partner 0.2 µM) ... not met
Cc1cnc(-c2cnc(NCCNc3ccc(C#N)cn3)nc2-c2ccc(Cl)cc2Cl)[nH]1 + CCNC(=O)c1noc(-c2cc(C(C)C)c(O)cc2O)c1-c1ccc(CN2CCOCC2)cc1 [Luminespib] (partner 0.01 µM) ... not met

QUERY: # TODO verify relative viability < 0.7 strictly for this compound: O=c1[nH]c2ccccc2n1C1CCN(CCCC(c2ccc(F)cc2)c2ccc(F)cc2)CC1 [Pimozide] + Cc1cc(Nc2cc(N3CCN(C)CC3)nc(Sc3ccc(NC(=O)C4CC4)cc3)n2)n[nH]1 [Tozasertib] (partner 0.1 µM)
RESULT: not met

QUERY: # TODO verify relative viability < 0.7 strictly for this compound: Cc1cnc(-c2cnc(NCCNc3ccc(C#N)cn3)nc2-c2ccc(Cl)cc2Cl)[nH]1 + NC(=O)Nc1cc(-c2cccc(F)c2)sc1C(=O)N[C@H]1CCCNC1 [AZD7762] (partner 0.2 µM)
RESULT: not met

QUERY: # TODO verify relative viability < 0.7 strictly for this compound: O=c1[nH]c2ccccc2n1C1CCN(CCCC(c2ccc(F)cc2)c2ccc(F)cc2)CC1 [Pimozide] + N=C(N)NC(=N)NCCc1ccccc1 [Phenformin] (partner 250 µM)
RESULT: met

QUERY: # TODO verify relative viability < 0.7 strictly for this compound: Cc1cnc(-c2cnc(NCCNc3ccc(C#N)cn3)nc2-c2ccc(Cl)cc2Cl)[nH]1 + Cc1cc(Nc2cc(N3CCN(C)CC3)nc(Sc3ccc(NC(=O)C4CC4)cc3)n2)n[nH]1 [Tozasertib] (partner 0.1 µM)
RESULT: not met

QUERY: # TODO verify relative viability < 0.7 strictly for this compound: Cc1cnc(-c2cnc(NCCNc3ccc(C#N)cn3)nc2-c2ccc(Cl)cc2Cl)[nH]1 + CC(C)C[C@H](NC(=O)[C@H](Cc1ccccc1)NC(=O)c1cnccn1)B(O)O [Bortezomib] (partner 0.002 µM)
RESULT: not met
